# System: barnyardgrass (Echinochloa crus-galli)
# assay-text: Test A greenhouse herbicide test, pre- and postemergence
# Format: in vivo
# condition-description: Postemergence, 500 g ai/ha; 0 to 100 scale, 0 is no effect, 100 is complete control
reported-endpoint: Barnyardgrass plant response rating

COc1nn(C)c(=O)c(-c2c(C)ccc3ccc(C)cc23)c1O: 30
CCc1nn(CC)c(=O)c(-c2c(C)oc3ccc(C)cc23)c1O: 0
Cc1ccc2ccccc2c1-c1c(O)c(Br)nn(C)c1=O: 90
Cc1cc(C)c2ccccc2c1-c1c(O)c(C)nn(C)c1=O: 90
Cc1ccc2c(c1)c(-c1c(O)c(C)nn(C)c1=O)c(C)n2C: 10

----------
# Test system: nutsedge, yellow (yellow nutsedge, Cyperus esculentus)
# assay-text: Test C greenhouse herbicide test, pre- and postemergence
# Type: in vivo
# condition-description: Preemergence, 62 g ai/ha; scale 0 to 100, 0 is no effect, 100 is complete control
Entries and their Plant response rating, Nutsedge, Yellow values follow.
reported-endpoint: Plant response rating, Nutsedge, Yellow

CCC(=O)Oc1c(C)nn(C)c(=O)c1-c1ccc(F)c2ccccc12: 70
CCc1oc2ccc(C)cc2c1-c1c(O)c(C)nn(C)c1=O: 0
Cc1ccc2ccccc2c1-c1c(O)c(I)nn(C)c1=O: 80
Cc1cc(C)c2ccccc2c1-c1c(O)c(C)nn(C)c1=O: 85
CC(=O)Oc1c(Cl)nn(C)c(=O)c1-c1c(C)sc2ccc(C(F)(F)F)cc12: 20

----------
# Test system: johnsongrass (Sorghum halepense)
# assay-text: Test C greenhouse herbicide test, pre- and postemergence
# Assay type: in vivo
# condition-description: postemergence, 62 g ai/ha; scale 0 to 100, 0 no effect, 100 complete control
Entries and their Johnsongrass plant response rating values follow.
reported-endpoint: Johnsongrass plant response rating

COC(=O)Oc1c(C)nn(C)c(=O)c1-c1c(C)sc2ccc(C)cc12 [Compound 80]: 5
Cc1ccc2ccccc2c1-c1c(OC(=O)OC(C)C)c(C)nn(C)c1=O [Compound 72]: 5
Cc1cc(C)c2ccccc2c1-c1c(O)c(C)nn(C)c1=O [Compound 21]: 20
Cc1nn(C)c(=O)c(-c2ccc(F)c3ccccc23)c1O [Compound 41]: 10
Cc1nn(C)c(=O)c(-c2c(C)sc3c(C)cc(Cl)cc23)c1O [Compound 35]: 20
Cn1nc(Br)c(O)c(-c2cccc3ccccc23)c1=O [Compound 20]: 10
Cc1cc(C)c2sc(C)c(-c3c(O)c(C)nn(C)c3=O)c2c1 [Compound 2]: 5
Cc1nn(C)c(=O)c(-c2ccc(Br)c3ccccc23)c1O [Compound 75]: 5

----------
Entries and their Plant response rating, Kochia values follow.
# Test system: kochia (Kochia scoparia)
# assay-text: Test A greenhouse herbicide test, pre- and postemergence
# Assay type: in vivo
# condition-description: Postemergence, 500 g ai/ha; visual rating after approx. 10 d, 0 to 100 scale (0 no effect, 100 complete control)
reported-endpoint: Plant response rating, Kochia

Cc1nn(C)c(=O)c(-c2c([N+](=O)[O-])ccc3ccccc23)c1O: 90
CCCC(=O)Oc1c(C)nn(C)c(=O)c1-c1c(C)sc2ccc(C)cc12: 90
Cc1ccc2ccccc2c1-c1c(OC(=O)C(C)(C)C)c(C#N)nn(C)c1=O: 0
CCc1nn(C)c(=O)c(-c2c(C)oc3ccc(C)cc23)c1O: 0
COC(=O)Oc1cnn(C)c(=O)c1-c1c(C)sc2ccccc12: 100
Cc1cc(C)c2sc(C)c(-c3c(OC(=O)N4CCOCC4)c(C)nn(C)c3=O)c2c1: 0
CC(=O)Oc1c(C)nn(C)c(=O)c1-c1c(C)sc2ccc(C(F)(F)F)cc12: 80
Cc1nn(C)c(=O)c(-c2ccc(Cl)c3ccccc23)c1OS(=O)(=O)C(F)(F)F: 100
